Kindly supply the reported normalized growth values for the records listed here.
experimentNotes: chemical genetic growth profiling, strain panel (AID 1159580);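 also: tested at 20 µM; growth read once vehicle control cultures reached saturation at 30 °C; 1 = growth at the plate median or of vehicle wells; lower values mean less growth of the strain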
experimentalSetup: S. cerevisiae deletion strains, growth OD, locus YNL183C, strain NPR1, stronger effect = lower value
Screen size: about 5,500 compounds; about 2,000 (36%) were called active. About 18% were inconclusive and are not listed. The list shows a part of the results.
The response must contain the number and no unit.

normalized growth lookup needed for `CO/N=C1/CC(C)(C)Cc2c(-c3ccn(C(=O)Nc4cccc(Cl)c4)n3)sc(SC)c21` , thanks.
1.03

normalized growth lookup needed for `Nc1ccc(S(=O)(=O)Nc2ncccn2)cc1` , thanks.
0.942

normalized growth lookup needed for Oc1ccc2c3c1OC1[C@@H](O)CC[C@@]4(O)[C@@H](C2)N(CC2CCC2)CC[C@]314 (some centres undefined) , thanks.
0.914

normalized growth lookup needed for COC1C(O)C(C)OC(O[C@H]2CC[C@]3(C=O)C4C(CC[C@]3(O)C2)[C@@]2(O)CC[C@H](C3=CC(=O)OC3)[C@@]2(C)C[C@H]4O)C1O (some centres undefined) , thanks.
0.988

normalized growth lookup needed for `N#Cc1c(Cl)cccc1Cl` , thanks.
0.902

normalized growth lookup needed for NCC(O)CC(=O)O (centres undefined) , thanks.
0.931

normalized growth lookup needed for OC(COCc1ccccc1)Cn1c2ccccc2c2ccccc21 (centres undefined) , thanks.
0.885

normalized growth lookup needed for `O=S(=O)(Nc1ccccc1Sc1c(Cl)cncc1Cl)c1ccc(Cl)cc1` , thanks.
0.961

normalized growth lookup needed for C[C@@H]1O[C@@H](O[C@H]2CC[C@]3(C=O)C4CC[C@]5(C)[C@@H](C6=CC(=O)OC6)CC[C@]5(O)C4CC[C@]3(O)C2)[C@H](O)[C@H](O)[C@H]1O (some centres undefined) , thanks.
0.965

====

experimentNotes: chemical genetic growth profiling, strain panel (AID 1159580)
experimentalSetup: S. cerevisiae deletion strains, growth OD, locus YLR058C, strain SHM2, stronger effect = lower value
The campaign covered roughly 5,500 compounds. About 2,000 (36%) were called active. Roughly 18% stayed inconclusive and do not appear here. This is one part of the list.
Kindly supply the reported normalized growth values for the records listed here.
The response must contain the number and no unit.

normalized growth lookup needed for O=c1c(O)cccc2c(C3Oc4cc(O)cc(O)c4CC3O)cc(O)c(O)c12 (stereo unspecified) , thanks.
0.143

normalized growth lookup needed for `NC(=O)c1ccccc1O` , thanks.
1.01

normalized growth lookup needed for `C[C@]12CCC(=O)C=C1CCc1ccc(O)cc12` , thanks.
1.02

normalized growth lookup needed for `O=C(O)c1ccccc1O` , thanks.
0.994

normalized growth lookup needed for `Nc1nc(/C(=C/CC(=O)O)C(=O)N[C@@H]2C(=O)N3C(C(=O)O)=CCS[C@H]23)cs1` , thanks.
0.996

normalized growth lookup needed for `COc1cccc2c1CCC1=CC(=O)CC[C@@]12C` , thanks.
0.993

====

experimentNotes: chemical genetic growth profiling, strain panel (AID 1159580);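 also: tested at 20 µM; growth read once vehicle control cultures reached saturation at 30 °C; 1 = growth at the plate median or of vehicle wells; lower values mean less growth of the strain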
experimentalSetup: S. cerevisiae deletion strains, growth OD, locus YOR290C, strain snf2, stronger effect = lower value
The campaign covered roughly 5,500 compounds. About 2,000 (36%) were called active. Inconclusive results (about 18%) are left out. The list shows a part of the results.
Kindly supply the reported normalized growth values for the records listed here.
The response must contain the number and no unit.

normalized growth lookup needed for CC1=C2C(O)C(=O)OC3CC4C(C)(C)C(=O)C=C[C@]4(C)C(CC1)[C@]23C (some centres not stated) , thanks.
1.01

normalized growth lookup needed for `COc1ccc(-c2cc(=O)c3c(O)cc(O)c(-c4cc(-c5cc(=O)c6c(O)cc(O)cc6o5)ccc4OC)c3o2)cc1` , thanks.
0.981

normalized growth lookup needed for `NC(=O)c1ccc([N+](=O)[O-])cc1Cl` , thanks.
0.915

normalized growth lookup needed for `Nc1ccc(S(=O)(=O)Nc2ncccn2)cc1` , thanks.
0.974

normalized growth lookup needed for CCC(=O)O[C@]1(C(=O)CCl)[C@@H](C)CC2C3CCC4=CC(=O)C=C[C@]4(C)[C@@]3(F)[C@@H](O)C[C@@]21C (some centres not stated) , thanks.
1.02

normalized growth lookup needed for `COc1cc2c(cc1OC)-c1c(oc3cc(O)cc(O)c3c1=O)CO2` , thanks.
1.02

normalized growth lookup needed for O=c1c2cc(O)c(O)cc2oc2cc(O)c(C3O[C@H](CO)[C@H](O)[C@@H](O)[C@H]3O)c(O)c12 (some centres not stated) , thanks.
0.995

normalized growth lookup needed for `COc1c(O)cc2c(c1O)[C@H]1O[C@H](CO)[C@@H](O)[C@H](O)[C@@H]1OC2=O` , thanks.
0.992

normalized growth lookup needed for COP(N)(=O)SC (configuration not stated) , thanks.
1

normalized growth lookup needed for O=c1c(-c2ccc(O)cc2)coc2c(C3O[C@H](CO)[C@@H](O)[C@H](O)[C@H]3O)c(O)ccc12 (some centres not stated) , thanks.
0.921

normalized growth lookup needed for `CN(C)C(=O)C(CCN1CCC(O)(c2ccc(Cl)cc2)CC1)(c1ccccc1)c1ccccc1` , thanks.
0.973

normalized growth lookup needed for C[C@@H]1CCC2[C@](C)(CO)[C@@H](O)CC[C@]2(C)[C@@]12CC[C@@](CO)(CCO)O2 (some centres not stated) , thanks.
0.967

normalized growth lookup needed for CCC(=O)OCC(=O)C1(OC(=O)CC)C(C)CC2C3C(Cl)CC4=CC(=O)C=CC4(C)C3C(O)CC21C (configuration not stated) , thanks.
1.06

normalized growth lookup needed for CCC(=O)OCC(=O)[C@@]1(OC(=O)CC)[C@@H](C)CC2C3CCC4=CC(=O)C=C[C@]4(C)C3(F)[C@@H](O)C[C@@]21C (some centres not stated) , thanks.
0.981

normalized growth lookup needed for C/C=C/CC(C)C(O)C1C(=O)NC(CC)C(=O)N(C)CC(=O)N(C)C(CC(C)C)C(=O)NC(C(C)C)C(=O)N(C)C(CC(C)C)C(=O)NC(C)C(=O)NC(C)C(=O)N(C)C(CC(C)C)C(=O)N(C)C(CC(C)C)C(=O)N(C)C(C(C)C)C(=O)N1C (configuration not stated) , thanks.
0.995

normalized growth lookup needed for CCC(=O)OCC(=O)C1(OC(=O)CC)C(C)CC2C3CCC4=CC(=O)C=CC4(C)C3(Cl)C(O)CC21C (configuration not stated) , thanks.
1

normalized growth lookup needed for `CCc1ccc2c(O)c3c(cc2c1C(=O)OC)C(=O)c1c(O)ccc(O)c1C3=O` , thanks.
0.929

====

experimentNotes: chemical genetic growth profiling, strain panel (AID 1159580);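 also: tested at 20 µM; growth read once vehicle control cultures reached saturation at 30 °C; 1 = growth at the plate median or of vehicle wells; lower values mean less growth of the strain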
experimentalSetup: S. cerevisiae deletion strains, growth OD, locus YJL129C, strain trk1, stronger effect = lower value
The campaign covered roughly 5,500 compounds. About 2,000 (36%) were called active. Inconclusive results (about 18%) are left out. Some of the results follow.
Kindly supply the reported normalized growth values for the records listed here.

normalized growth lookup needed for CC1CCCC(C)N1NC(=O)c1ccc(Cl)c(S(N)(=O)=O)c1 (centres undefined) , thanks.
1.03 (inactive)

normalized growth lookup needed for `O=C(Oc1cccc2cccnc12)c1ccccc1` , thanks.
0.97 (inactive)

normalized growth lookup needed for CC1Cc2ccccc2N1NC(=O)c1ccc(Cl)c(S(N)(=O)=O)c1 (centres undefined) , thanks.
0.989 (inactive)

normalized growth lookup needed for `O=C(CCCN1CCC2(CC1)C(=O)NCN2c1ccccc1)c1ccc(F)cc1` , thanks.
0.949 (inactive)

normalized growth lookup needed for `CC(=O)Oc1ccccc1C(=O)Oc1ccccc1C(=O)O` , thanks.
1.01 (inactive)

normalized growth lookup needed for `C[N+]1(C)C[C@H](O)[C@H](C(=O)[O-])C1` , thanks.
1.01 (inactive)

normalized growth lookup needed for `CSc1nc(NC(C)C)nc(NC(C)C)n1` , thanks.
0.962 (inactive)

normalized growth lookup needed for `NC[C@H]1O[C@H](O[C@H]2[C@H](O)[C@@H](O[C@H]3O[C@H](CO)[C@@H](O)[C@H](N)[C@H]3O)[C@H](N)C[C@@H]2N)[C@H](N)[C@@H](O)[C@@H]1O` , thanks.
0.988 (inactive)

normalized growth lookup needed for `CC(C)Nc1nc(Cl)nc(NC(C)C)n1` , thanks.
0.997 (inactive)

normalized growth lookup needed for `O=C(Oc1ccccc1C(=O)O)c1ccccc1O` , thanks.
0.955 (inactive)

normalized growth lookup needed for `NCCCC(O)(P(=O)(O)O)P(=O)(O)O` , thanks.
0.964 (inactive)

normalized growth lookup needed for `COc1nc(NC(C)C)nc(NC(C)C)n1` , thanks.
1.02 (inactive)

normalized growth lookup needed for `Cc1ncc(CO)c(CO)c1O` , thanks.
1.04 (inactive)

normalized growth lookup needed for COC(=O)C(N)CS (centres undefined) , thanks.
1.01 (inactive)

====

experimentNotes: chemical genetic growth profiling, strain panel (AID 1159580);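 also: tested at 20 µM; growth read once vehicle control cultures reached saturation at 30 °C; 1 = growth at the plate median or of vehicle wells; lower values mean less growth of the strain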
experimentalSetup: S. cerevisiae deletion strains, growth OD, locus YDL214C, strain PRR2
Among all 5,500 compounds or so, about 2,000 (36%) were called active. About 18% were inconclusive and are not listed. Cut-off read from the data, not from the text of the source: active = normalized growth mostly below about 0.91 (no sharp cut-off); inconclusive = no clear call, values can overlap the other calls; inactive = mostly above about 0.92. The list shows a part of the results.
Lab note: assign the record to one of TRUE for active, FALSE for inactive

What did the test return for `O=C(NC(=S)NNc1ncc(C(F)(F)F)cc1Cl)c1cccs1` ?
TRUE

What did the test return for `Cc1ccc(OS(=O)(=O)c2c(Cl)sc(Cl)c2Br)c([N+](=O)[O-])n1` ?
FALSE

What did the test return for `O=C(NNc1cc(C(F)(F)F)cc(C(F)(F)F)c1)c1cnc2n(c1=O)CCS2` ?
FALSE

What did the test return for `CCn1nc(C)cc1C(=O)Sc1cccc(Br)c1` ?
FALSE

What did the test return for `COc1ccc(N=C2SCC(c3ccc(C)cc3)=NN2CCO)cc1` ?
FALSE

What did the test return for `CCOC(=O)NC(=S)Nc1ccc(C(C)(C)C)cc1NC(=S)NC(=O)OCC` ?
FALSE

What did the test return for `Cc1ccc(Sc2ncccc2NS(=O)(=O)c2ccc(Cl)cc2)cc1` ?
FALSE

What did the test return for `ONC(=Nc1ccccc1Cl)c1ccccc1Cl` ?
FALSE

What did the test return for `CCCCCCCCCCCCSc1ncn[nH]1` ?
FALSE
